assay notes: everolimus arterial tissue concentration in and next to the stented vessel
Format: in vivo, swine
condition summary: swine, arterial tissue, distal stented region (D), swine; 7.0×100 mm stent; 7 days; read-out: Mean Arterial Tissue Concentration, D distal stented region
measured property: concentration at 7 days
Give the number first and the unit second.

# get_value(readout='concentration at 7 days', item= CO[C@H]1C[C@@H]2CC[C@@H](C)[C@@](O)(O2)C(=O)C(=O)N2CCCC[C@H]2C(=O)O[C@H]([C@H](C)C[C@@H]2CC[C@@H](OCCO)[C@H](OC)C2)CC(=O)[C@H](C)/C=C(\C)[C@@H](O)[C@@H](OC)C(=O)[C@H](C)C[C@H](C)/C=C/C=C/C=C/1C [everolimus, 40-O-(2-hydroxyethyl)-rapamycin] )
9630 ng/g

----------
assay notes: everolimus arterial tissue concentration in and next to the stented vessel
Assay type: in vivo, swine
condition summary: swine, 1070 μg, swine; 8.0×28 mm stent, group 2, 1070 μg Lot #2; 3 days; read-out: drug concentration in tissue proximal to stented region
measured property: concentration at 3 days (ng/g)
Numeric only. Scale: ng/g

# get_value(readout='concentration at 3 days', item= CO[C@H]1C[C@@H]2CC[C@@H](C)[C@@](O)(O2)C(=O)C(=O)N2CCCC[C@H]2C(=O)O[C@H]([C@H](C)C[C@@H]2CC[C@@H](OCCO)[C@H](OC)C2)CC(=O)[C@H](C)/C=C(\C)[C@@H](O)[C@@H](OC)C(=O)[C@H](C)C[C@H](C)/C=C/C=C/C=C/1C [everolimus, 40-O-(2-hydroxyethyl)-rapamycin] )
533

----------
assay notes: everolimus arterial tissue concentration in and next to the stented vessel
Type: in vivo, swine
condition summary: swine, 1070 μg, swine; 8.0×28 mm stent, group 2, 1070 μg Lot #2; 7 days; read-out: drug concentration in tissue proximal to stented region
measured property: concentration at 7 days (ng/g)
Numeric only. Scale: ng/g

# get_value(readout='concentration at 7 days', item= CO[C@H]1C[C@@H]2CC[C@@H](C)[C@@](O)(O2)C(=O)C(=O)N2CCCC[C@H]2C(=O)O[C@H]([C@H](C)C[C@@H]2CC[C@@H](OCCO)[C@H](OC)C2)CC(=O)[C@H](C)/C=C(\C)[C@@H](O)[C@@H](OC)C(=O)[C@H](C)C[C@H](C)/C=C/C=C/C=C/1C [everolimus, 40-O-(2-hydroxyethyl)-rapamycin] )
104

----------
assay notes: everolimus arterial tissue concentration in and next to the stented vessel
Type: in vivo, swine
condition summary: swine, arterial tissue, medial stented region (C), swine; 7.0×100 mm stent; 3 days; read-out: Mean Arterial Tissue Concentration, C medial stented region
measured property: concentration at 3 days (ng/g)
Numeric only. Scale: ng/g

# get_value(readout='concentration at 3 days', item= CO[C@H]1C[C@@H]2CC[C@@H](C)[C@@](O)(O2)C(=O)C(=O)N2CCCC[C@H]2C(=O)O[C@H]([C@H](C)C[C@@H]2CC[C@@H](OCCO)[C@H](OC)C2)CC(=O)[C@H](C)/C=C(\C)[C@@H](O)[C@@H](OC)C(=O)[C@H](C)C[C@H](C)/C=C/C=C/C=C/1C [everolimus, 40-O-(2-hydroxyethyl)-rapamycin] )
16300

----------
assay notes: everolimus arterial tissue concentration in and next to the stented vessel
Type: in vivo, swine
condition summary: swine, arterial tissue proximal to stented region (unstented), 1070 μg, swine; 10.0×28 mm stent, 1070 μg; 14 days; read-out: drug concentration in tissue proximal to stented region
measured property: concentration at 14 days (ng/g)
Numeric only. Scale: ng/g

# get_value(readout='concentration at 14 days', item= CO[C@H]1C[C@@H]2CC[C@@H](C)[C@@](O)(O2)C(=O)C(=O)N2CCCC[C@H]2C(=O)O[C@H]([C@H](C)C[C@@H]2CC[C@@H](OCCO)[C@H](OC)C2)CC(=O)[C@H](C)/C=C(\C)[C@@H](O)[C@@H](OC)C(=O)[C@H](C)C[C@H](C)/C=C/C=C/C=C/1C [everolimus, 40-O-(2-hydroxyethyl)-rapamycin] )
40

----------
assay notes: everolimus arterial tissue concentration in and next to the stented vessel
Assay type: in vivo, swine
condition summary: swine, arterial tissue distal to stented region (unstented), 1070 μg, swine; 10.0×28 mm stent, 1070 μg; 28 days; read-out: drug concentration in tissue distal to stented region
measured property: concentration at 28 days (ng/g)
Numeric only. Scale: ng/g

# get_value(readout='concentration at 28 days', item= CO[C@H]1C[C@@H]2CC[C@@H](C)[C@@](O)(O2)C(=O)C(=O)N2CCCC[C@H]2C(=O)O[C@H]([C@H](C)C[C@@H]2CC[C@@H](OCCO)[C@H](OC)C2)CC(=O)[C@H](C)/C=C(\C)[C@@H](O)[C@@H](OC)C(=O)[C@H](C)C[C@H](C)/C=C/C=C/C=C/1C [everolimus, 40-O-(2-hydroxyethyl)-rapamycin] )
86

----------
assay notes: everolimus arterial tissue concentration in and next to the stented vessel
Assay type: in vivo, swine
condition summary: swine, arterial tissue of stented region, 1070 μg, swine; 8.0×28 mm stent, group 2, 1070 μg Lot #2; 7 days; read-out: drug concentration in tissue of stented region
measured property: concentration at 7 days (ng/g)
Numeric only. Scale: ng/g

# get_value(readout='concentration at 7 days', item= CO[C@H]1C[C@@H]2CC[C@@H](C)[C@@](O)(O2)C(=O)C(=O)N2CCCC[C@H]2C(=O)O[C@H]([C@H](C)C[C@@H]2CC[C@@H](OCCO)[C@H](OC)C2)CC(=O)[C@H](C)/C=C(\C)[C@@H](O)[C@@H](OC)C(=O)[C@H](C)C[C@H](C)/C=C/C=C/C=C/1C [everolimus, 40-O-(2-hydroxyethyl)-rapamycin] )
3590

----------
assay notes: everolimus arterial tissue concentration in and next to the stented vessel
Type: in vivo, swine
condition summary: swine, 3209 μg, swine; 8.0×28 mm stent, group 3, 3209 μg; 90 days; read-out: drug concentration in tissue distal to stented region
measured property: concentration at 90 days (ng/g)
Numeric only. Scale: ng/g

# get_value(readout='concentration at 90 days', item= CO[C@H]1C[C@@H]2CC[C@@H](C)[C@@](O)(O2)C(=O)C(=O)N2CCCC[C@H]2C(=O)O[C@H]([C@H](C)C[C@@H]2CC[C@@H](OCCO)[C@H](OC)C2)CC(=O)[C@H](C)/C=C(\C)[C@@H](O)[C@@H](OC)C(=O)[C@H](C)C[C@H](C)/C=C/C=C/C=C/1C [everolimus, 40-O-(2-hydroxyethyl)-rapamycin] )
63

----------
assay notes: everolimus arterial tissue concentration in and next to the stented vessel
Assay type: in vivo, swine
condition summary: swine, arterial tissue, unstented segment distal to stented region, 1070 μg, swine; 8.0×28 mm stent, group 2, 1070 μg Lot #2; 28 days; read-out: drug concentration in tissue distal to stented region
measured property: concentration at 28 days (ng/g)
Numeric only. Scale: ng/g

# get_value(readout='concentration at 28 days', item= CO[C@H]1C[C@@H]2CC[C@@H](C)[C@@](O)(O2)C(=O)C(=O)N2CCCC[C@H]2C(=O)O[C@H]([C@H](C)C[C@@H]2CC[C@@H](OCCO)[C@H](OC)C2)CC(=O)[C@H](C)/C=C(\C)[C@@H](O)[C@@H](OC)C(=O)[C@H](C)C[C@H](C)/C=C/C=C/C=C/1C [everolimus, 40-O-(2-hydroxyethyl)-rapamycin] )
73

----------
assay notes: everolimus arterial tissue concentration in and next to the stented vessel
Assay type: in vivo, swine
condition summary: pig, arterial tissue of the stented vessel, 3209 ug; 8×28 mm stent, 3209 μg everolimus
measured property: Tmax (h)
Numeric only. Scale: h

# get_value(readout='Tmax', item= CO[C@H]1C[C@@H]2CC[C@@H](C)[C@@](O)(O2)C(=O)C(=O)N2CCCC[C@H]2C(=O)O[C@H]([C@H](C)C[C@@H]2CC[C@@H](OCCO)[C@H](OC)C2)CC(=O)[C@H](C)/C=C(\C)[C@@H](O)[C@@H](OC)C(=O)[C@H](C)C[C@H](C)/C=C/C=C/C=C/1C [everolimus, 40-O-(2-hydroxyethyl)-rapamycin] )
72

----------
assay notes: everolimus arterial tissue concentration in and next to the stented vessel
Assay type: in vivo, swine
condition summary: swine, arterial tissue, unstented segment distal to stented region, 1070 μg, swine; 8.0×28 mm stent, group 2, 1070 μg Lot #2; 56 days; read-out: drug concentration in tissue distal to stented region
measured property: concentration at 56 days (ng/g)
Numeric only. Scale: ng/g

# get_value(readout='concentration at 56 days', item= CO[C@H]1C[C@@H]2CC[C@@H](C)[C@@](O)(O2)C(=O)C(=O)N2CCCC[C@H]2C(=O)O[C@H]([C@H](C)C[C@@H]2CC[C@@H](OCCO)[C@H](OC)C2)CC(=O)[C@H](C)/C=C(\C)[C@@H](O)[C@@H](OC)C(=O)[C@H](C)C[C@H](C)/C=C/C=C/C=C/1C [everolimus, 40-O-(2-hydroxyethyl)-rapamycin] )
25
